assay: Photocytotoxicity against human L-132 cells at 50 uM using 0.77 mW/cm2 white light irradiation by MTT assay; type: toxicity, cell-based; settings: l132, 50 µM
quantity_kind: Activity

Provide only the value of recorded Activity for CCC1=C(C)C2=C(C)c3c(C)c(CC)c(C)n3[B-](F)(F)[N+]2=C1/C=C/c1ccc(O[C@H]2O[C@H](CO)[C@@H](O)[C@H](O)[C@H]2O)cc1
5 to 7%

====

test: Photocytotoxicity against human WI38 cells at 50 uM using 0.77 mW/cm2 white light irradiation by MTT assay; assay type: toxicity, cell-based; settings: wi-38, 50 µM
quantity_kind: Activity

Provide only the value of recorded Activity for CCC1=C(C)C2=C(C)c3c(C)c(CC)c(C)n3[B-](F)(F)[N+]2=C1/C=C/c1ccc(O[C@H]2O[C@H](CO)[C@@H](O)[C@H](O)[C@H]2O)cc1
5 to 7%

====

test: Cytotoxicity against human A549 cells assessed as decrease in cell viability up to 200 uM after 48 hrs under dark condition by MTT assay; type: toxicity, cell-based; settings: a549, 48 h
quantity_kind: Activity

1) CCC1=C(C)C2=C(c3ccccc3)c3c(C)c(CC)c(C)n3[B-](F)(F)[N+]2=C1/C=C/c1ccc(O)cc1	Non-Toxic
2) CCC1=C(C)C2=C(C)c3c(C)c(CC)c(C)n3[B-](F)(F)[N+]2=C1/C=C/c1ccc(O)cc1	Non-Toxic
3) CCC1=C(C)C2=C(c3ccc(O)cc3)c3c(C)c(CC)c(C)n3[B-](F)(F)[N+]2=C1C	Non-Toxic

====

experiment: Drug uptake in human A549 cells assessed as mean fluorescence intensity at 2.5 uM after 16 hrs by flow cytometry (reference value: 5.4 +/- 1.5); assay type: ADME, cell-based; conditions: a549, 16 h
quantity_kind: Flu intensity

Provide only the value of recorded Flu intensity for CCC1=C(C)C2=C(C)c3c(C)c(CC)c(C)n3[B-](F)(F)[N+]2=C1/C=C/c1ccc(O[C@H]2O[C@H](CO)[C@@H](O)[C@H](O)[C@H]2O)cc1
41.6 to 52.5

====

assay: Drug uptake in human A549 cells assessed as mean fluorescence intensity at 2.5 uM after 2 hrs by flow cytometry (reference value: 5.4 +/- 1.5); assay type: ADME, cell-based; details: a549, 2 h
quantity_kind: Flu intensity

Provide only the value of recorded Flu intensity for CCC1=C(C)C2=C(C)c3c(C)c(CC)c(C)n3[B-](F)(F)[N+]2=C1/C=C/c1ccc(O[C@H]2O[C@H](CO)[C@@H](O)[C@H](O)[C@H]2O)cc1
95.3 to 98.5

====

assay: Cytotoxicity against human A549 cells assessed as decrease in cell viability up to 200 uM after 48 hrs under dark condition by MTT assay; format: toxicity, cell-based; settings: a549, 48 h
quantity_kind: Activity

1) CCC1=C(C)C2=C(c3ccccc3)c3c(C)c(CC)c(C)n3[B-](F)(F)[N+]2=C1/C=C/c1ccc(O[C@H]2O[C@H](CO)[C@@H](O)[C@H](O)[C@H]2O)cc1	Non-Toxic
2) CCC1=C(C)C2=C(c3ccc(O[C@H]4O[C@H](CO)[C@@H](O)[C@H](O)[C@H]4O)cc3)c3c(C)c(CC)c(C)n3[B-](F)(F)[N+]2=C1C	Non-Toxic
3) CCC1=C(C)C2=C(C)c3c(C)c(CC)c(C)n3[B-](F)(F)[N+]2=C1/C=C/c1ccc(O[C@H]2O[C@H](CO)[C@@H](O)[C@H](O)[C@H]2O)cc1	Non-Toxic
